Taken from PubChem BioAssay (NCATS).

Assay: Cellular viability qHTS for adrenocortical cancer (ACC) cell line NCI-H295R (AID 1963990); also: nearly all actives have a fitted effect of over 60% in size
Conditions: CellTiter-Glo ATP luminescence, 48 h; series mostly up to 46.1 µM
Inconclusive results are not listed. Active and inactive are the calls of the source. Calls follow the shape of the dose curve; as a rule, active = well fitted cell-killing curve with a large enough effect; inconclusive = small, poorly fitted or top-dose-only effect; inactive = flat fitted curve, though single readings scatter. Where a SMILES comes first, the peptide text is derived from it. [ ]: non-standard residue; d: D form. The star is where a group is joined. Sta = CC(C)C[C@H](N)[C@@H](O)CC(=O)O; Isovaleryl = CC(C)CC(=O)*
Labels: active, inactive

{"compound": "OC(C#CCN1CCCC1)(c1ccccc1)c1ccccc1", "className": "inactive"}
{"compound": "OC[C@H]1O[C@@H](S[C@@H]2O[C@H](CO)[C@H](O)[C@H](n3cc(-c4cccc(F)c4)nn3)[C@H]2O)[C@H](O)[C@@H](n2cc(-c3cccc(F)c3)nn2)[C@H]1O", "className": "inactive"}
{"compound": "CCCS(=O)(=O)c1nc(NC2CC2)cc(-c2ccc3c(ccn3C3CC(C)(C)NC(C)(C)C3)c2)n1", "className": "active"}
{"compound": "N[C@@H](Cc1cc(I)c(O)c(I)c1)C(=O)O", "className": "inactive"}
{"compound": "NC(=O)c1cc[n+](CC2=C(C(=O)[O-])N3C(=O)[C@@H](NC(=O)Cc4cccs4)[C@H]3SC2)cc1", "className": "inactive"}
{"compound": "CC(C(=O)O)c1ccc2c(c1)Cc1cccnc1O2 (centres undefined)", "className": "inactive"}
{"compound": "C[C@@H](C(=O)Nc1ccc(Cl)cc1)C1CCC(c2ccnc3ccc(F)cc23)CC1 (some centres undefined)", "className": "active"}
{"compound": "O=C(CCCCCCC(=O)Nc1cccnc1)NO", "className": "active"}
{"compound": "CC1(C)CN(C(=O)c2ccc(-c3cccc4nc(NC(=O)C5CC5)nn34)cc2)C1", "className": "inactive"}
{"compound": "O=C(O)C[C@H](O)C[C@H](O)/C=C/c1c(C2CC2)nc2ccccc2c1-c1ccc(F)cc1", "className": "active"}
{"compound": "C=CC(=O)Nc1ccc2ncnc(Nc3ccc(OCc4cccc(F)c4)c(Cl)c3)c2c1", "className": "active"}
{"compound": "CCCOc1ccc(CCc2nc3cc(-c4c(C)noc4C)ccc3n2CCN2CCOCC2)cc1", "className": "active"}
{"compound": "CCCN1CCN(c2ccc(C(=O)NC3(C(=O)NCC#N)CCCCC3)cc2)CC1", "className": "inactive"}
{"compound": "CC(C)C(=O)Nc1cccc(C(F)(F)F)c1", "className": "inactive"}
{"compound": "OCCNC1CCCc2c1[nH]c1ccc(-c3ccccc3)cc21 (centres undefined)", "className": "active"}
{"compound": "NC(=O)c1cccc2[nH]c(-c3ccc([C@H]4CCCN4)cc3F)nc12", "className": "active"}
{"compound": "c1ccc(CNCCNCc2ccccc2)cc1", "className": "inactive"}
{"compound": "Oc1c(Cl)cc(Cl)c2cccnc12", "className": "active"}
{"compound": "Cc1ccc(CN2CCNCC2)cc1NC(=O)CNc1ccc(F)c(F)c1", "className": "inactive"}
{"compound": "Cn1c(=O)c2c(ncn2CC(=O)O)n(C)c1=O", "className": "inactive"}
{"compound": "CC(C)CC(=O)N[C@H](C(=O)N[C@H](C(=O)N[C@@H](CC(C)C)[C@@H](O)CC(=O)N[C@@H](C)C(=O)N[C@@H](CC(C)C)[C@@H](O)CC(=O)O)C(C)C)C(C)C (Isovaleryl-VV[Sta]A[Sta]-OH)", "className": "inactive"}
{"compound": "NS(=O)(=O)c1ccc(NC(=O)CCC(=O)O)cc1", "className": "inactive"}
{"compound": "Cc1c(C)c2c(c(C)c1OC(=O)CCC(=O)OCCO)CC[C@@](C)(CCC[C@H](C)CCC[C@H](C)CCCC(C)C)O2", "className": "active"}
{"compound": "CC(=O)Nc1ccccc1", "className": "inactive"}
{"compound": "CC(C)NCC(O)c1cc(O)cc(O)c1 (centres undefined)", "className": "inactive"}
{"compound": "CN1C(C(=O)Nc2ccccn2)=C(O)c2ccccc2S1(=O)=O", "className": "inactive"}
{"compound": "CN1CCN(C(=O)c2ccc(-c3ccc4c(C=O)c(O)ccc4c3)s2)CC1", "className": "inactive"}
{"compound": "O=C1c2ccccc2C(=O)C1c1ccc(Br)cc1", "className": "inactive"}
{"compound": "NC(=O)NO", "className": "inactive"}
{"compound": "Cc1cn([C@@H]2C[C@@H](O)[C@H](CO)O2)c(=O)[nH]c1=O", "className": "inactive"}
{"compound": "O=C(NCC(=O)N1CCCC1)Nc1ccc2cnccc2c1", "className": "inactive"}
{"compound": "CCCOc1ccc(C(=O)OCCN(CC)CC)cc1N", "className": "inactive"}
{"compound": "OC[C@@H](O)[C@@H](O)[C@H](O)[C@H](O)CO", "className": "inactive"}
{"compound": "O=[N+]([O-])c1cncn1CCN1CCOCC1", "className": "inactive"}
